- protocolDescription: physchem
- assayContext: surfactant/co-surfactant mixture Tween 80/PEG 600, S/CS 2:1, organic solvent or mixture, thermodynamic from solid, Tween 80 ®/PEG 600, ratio S/CS 2:1
endpointName: solubility (mg/mL)
Field format: number, assumed mg/mL, no unit text.

Lab note: measured solubility of OCCOc1ccc(/C(=C(/CCCl)c2ccccc2)c2ccccc2)cc1 was 140

###

- protocolDescription: physchem
- assayContext: organic solvent or mixture, thermodynamic from solid, Tween 20 ®/Transcutol ®, ratio S/CS 1:1
endpointName: solubility (mg/mL)
Field format: number, assumed mg/mL, no unit text.

Lab note: measured solubility of OCCOc1ccc(/C(=C(/CCCl)c2ccccc2)c2ccccc2)cc1 was 210

###

- protocolDescription: physchem
- assayContext: organic solvent or mixture, thermodynamic from solid, in PG 200, room temperature
endpointName: solubility (mg/mL)
Field format: number, assumed mg/mL, no unit text.

Lab note: measured solubility of OCCOc1ccc(/C(=C(/CCCl)c2ccccc2)c2ccccc2)cc1 [Ospemifene] was 100

###

- protocolDescription: physchem
- assayContext: surfactant/co-surfactant mixture Tween 80/PEG 600, S/CS 1:2, organic solvent or mixture, thermodynamic from solid, Tween 80 ®/PEG 600, ratio S/CS 1:2
endpointName: solubility (mg/mL)
Field format: number, assumed mg/mL, no unit text.

Lab note: measured solubility of OCCOc1ccc(/C(=C(/CCCl)c2ccccc2)c2ccccc2)cc1 was 120

###

- protocolDescription: physchem
- assayContext: surfactant/co-surfactant mixture Tween 20/PG 200, S/CS 1:2, organic solvent or mixture, thermodynamic from solid, Tween 20 ®/PG 200, ratio S/CS 1:2
endpointName: solubility (mg/mL)
Field format: number, assumed mg/mL, no unit text.

Lab note: measured solubility of OCCOc1ccc(/C(=C(/CCCl)c2ccccc2)c2ccccc2)cc1 [Ospemifene] was 120

###

- protocolDescription: physchem
- assayContext: Castor oil #1 (neat excipient), oil or lipid, thermodynamic from solid, in Castor oil #1, room temperature
endpointName: solubility (mg/mL)
Field format: number, assumed mg/mL, no unit text.

Lab note: measured solubility of OCCOc1ccc(/C(=C(/CCCl)c2ccccc2)c2ccccc2)cc1 was 60

###

- protocolDescription: physchem
- assayContext: organic solvent or mixture, thermodynamic from solid, in Kolliphpor ® RH40, room temperature
endpointName: solubility (mg/mL)
Field format: number, assumed mg/mL, no unit text.

Lab note: measured solubility of OCCOc1ccc(/C(=C(/CCCl)c2ccccc2)c2ccccc2)cc1 was 180

###

- protocolDescription: physchem
- assayContext: Sesame oil (neat excipient), oil or lipid, thermodynamic from solid, in Sesame oil, room temperature
endpointName: solubility (mg/mL)
Field format: number, assumed mg/mL, no unit text.

Lab note: measured solubility of OCCOc1ccc(/C(=C(/CCCl)c2ccccc2)c2ccccc2)cc1 was 60

###

- protocolDescription: physchem
- assayContext: oil or lipid, thermodynamic from solid, Dubcare GPE 810 ®/(Tween 80 ®/PEG 600), ratio oil/(S/CS) 3:7, S/CS 1/1
endpointName: solubility (mg/mL)
Field format: number, assumed mg/mL, no unit text.

Lab note: measured solubility of OCCOc1ccc(/C(=C(/CCCl)c2ccccc2)c2ccccc2)cc1 was 150

###

- protocolDescription: physchem
- assayContext: Dubcare GPE 810 (neat excipient), organic solvent or mixture, thermodynamic from solid, in Dubcare GPE 810 ®, room temperature
endpointName: solubility (mg/mL)
Field format: number, assumed mg/mL, no unit text.

Lab note: measured solubility of OCCOc1ccc(/C(=C(/CCCl)c2ccccc2)c2ccccc2)cc1 was 180

###

- protocolDescription: physchem
- assayContext: Castor oil #2 (neat excipient), oil or lipid, thermodynamic from solid, in Castor oil #2, room temperature
endpointName: solubility (mg/mL)
Field format: number, assumed mg/mL, no unit text.

Lab note: measured solubility of OCCOc1ccc(/C(=C(/CCCl)c2ccccc2)c2ccccc2)cc1 was 60

###

- protocolDescription: physchem
- assayContext: Isopropyl myristate (neat excipient), oil or lipid, thermodynamic from solid, in Isopropyl myristate, room temperature
endpointName: solubility (mg/mL)
Field format: number, assumed mg/mL, no unit text.

Lab note: measured solubility of OCCOc1ccc(/C(=C(/CCCl)c2ccccc2)c2ccccc2)cc1 [Ospemifene] was 150

###

- protocolDescription: physchem
- assayContext: Tyloxapol (neat excipient), organic solvent or mixture, thermodynamic from solid, in Tyloxapol, room temperature
endpointName: solubility
In your response, the unit should come after the numeric value.

Lab note: measured solubility of OCCOc1ccc(/C(=C(/CCCl)c2ccccc2)c2ccccc2)cc1 was 140 mg/mL

###

- protocolDescription: physchem
- assayContext: organic solvent or mixture, thermodynamic from solid, Tween 20 ®/Transcutol ®, ratio S/CS 2:1
endpointName: solubility

Lab note: measured solubility of OCCOc1ccc(/C(=C(/CCCl)c2ccccc2)c2ccccc2)cc1 was 190 mg/mL

###

- protocolDescription: physchem
- assayContext: surfactant/co-surfactant mixture Tween 20/PG 600, S/CS 1:2, organic solvent or mixture, thermodynamic from solid, Tween 20 ®/PG 600, ratio S/CS 1:2
endpointName: solubility (mg/mL)
Field format: number, assumed mg/mL, no unit text.

Lab note: measured solubility of OCCOc1ccc(/C(=C(/CCCl)c2ccccc2)c2ccccc2)cc1 was 140

###

- protocolDescription: physchem
- assayContext: Propylene glycol (neat excipient), organic solvent or mixture, thermodynamic from solid, in Propylene glycol, room temperature
endpointName: solubility (mg/mL)
Field format: number, assumed mg/mL, no unit text.

Lab note: measured solubility of OCCOc1ccc(/C(=C(/CCCl)c2ccccc2)c2ccccc2)cc1 [Ospemifene] was 50

###

- protocolDescription: physchem
- assayContext: Tween 20 (neat excipient), organic solvent or mixture, thermodynamic from solid, in Tween 20 ®, room temperature
endpointName: solubility (mg/mL)
Field format: number, assumed mg/mL, no unit text.

Lab note: measured solubility of OCCOc1ccc(/C(=C(/CCCl)c2ccccc2)c2ccccc2)cc1 was 150

###

- protocolDescription: physchem
- assayContext: organic solvent or mixture, thermodynamic from solid, Tween 20 ®/Transcutol ®, ratio S/CS 1:2
endpointName: solubility (mg/mL)
Field format: number, assumed mg/mL, no unit text.

Lab note: measured solubility of OCCOc1ccc(/C(=C(/CCCl)c2ccccc2)c2ccccc2)cc1 was 240

###

- protocolDescription: physchem
- assayContext: oil or lipid, thermodynamic from solid, Dubcare GPE 810 ®/(Tween 80 ®/PEG 600), ratio oil/(S/CS) 8:2, S/CS 1/1
endpointName: solubility

Lab note: measured solubility of OCCOc1ccc(/C(=C(/CCCl)c2ccccc2)c2ccccc2)cc1 [Ospemifene] was 60 mg/mL

###

- protocolDescription: physchem
- assayContext: Transcutol (neat excipient), organic solvent or mixture, thermodynamic from solid, in Transcutol ®, room temperature
endpointName: solubility (mg/mL)
Field format: number, assumed mg/mL, no unit text.

Lab note: measured solubility of OCCOc1ccc(/C(=C(/CCCl)c2ccccc2)c2ccccc2)cc1 was 280

###

- protocolDescription: physchem
- assayContext: surfactant/co-surfactant mixture Tween 80/PEG 600, S/CS 1:1, organic solvent or mixture, thermodynamic from solid, Tween 80 ®/PEG 600, ratio S/CS 1:1
endpointName: solubility (mg/mL)
Field format: number, assumed mg/mL, no unit text.

Lab note: measured solubility of OCCOc1ccc(/C(=C(/CCCl)c2ccccc2)c2ccccc2)cc1 was 140
